Documented Mono across a set of molecules
Species: Rattus norvegicus
assay info: Open TG-GATES - Regimen: Daily Repeat
Format: toxicity, organism-based, Sprague-Dawley
Design: regimen Daily Repeat, gender Male, age 6 weeks
measurement context: in vivo, po, 1000 mg/kg, […], tissue Blood, route gavage, dose level High, time 28 day
Please state the figure in %; there is no need to write the unit.

Look over these answered cases.
[
  {
    "molecule": "COC(=O)C1=C(C)NC(C)=C(C(=O)OC)C1c1ccccc1[N+](=O)[O-]",
    "metric": "Mono",
    "experimental value": 3.2
  },
  {
    "molecule": "CCOc1ccc(NC(C)=O)cc1",
    "metric": "Mono",
    "experimental value": 3.2
  }
]

Q) Tell me its Mono given "O=C(OC[C@H]1O[C@@H](OC(=O)c2cc(O)c(O)c(OC(=O)c3cc(O)c(O)c(O)c3)c2)[C@H](OC(=O)c2cc(O)c(O)c(OC(=O)c3cc(O)c(O)c(O)c3)c2)[C@@H](OC(=O)c2cc(O)c(O)c(OC(=O)c3cc(O)c(O)c(O)c3)c2)[C@@H]1OC(=O)c1cc(O)c(O)c(OC(=O)c2cc(O)c(O)c(O)c2)c1)c1cc(O)c(O)c(OC(=O)c2cc(O)c(O)c(O)c2)c1" as the entry.
A) 7.6

Source of measurements: ChEMBL document CHEMBL3885861
